# Assay system: G1 APOL1 (Homo sapiens, UniProt O14791, I384M/S342G)
# Construct: expressed in transfected cells
# Experimental details: Acute APOL1 Thallium Assay with Inducible Stable Clones of HEK 293 Cells
# Type: cell-based
# Measurement parameters: HEK 293 inducible stable clones, G1 APOL1; read-out: Thallium Assay (IC50)
pIC50: −log10 of the molar value.
Some compounds, each annotated with its measured pIC50.
Measure: pIC50

1. O=C(CCc1c(-c2ccc(F)cc2)[nH]c2ccc(F)cc12)NC1CC1c1ccc(F)cc1 (centres unmarked) | < 6.00
2. CS(=O)(=O)CC(=O)NCCc1c(-c2ccc(F)cc2)[nH]c2c(F)cc(F)cc12 | < 6.00
3. O=C(CCc1c(-c2ccccc2)[nH]c2ccc(F)cc12)N[C@@H](CO)C(F)F | > 6.60
4. CC1(C(=O)NCCc2c(-c3ccc(F)cc3)[nH]c3c(F)cc(F)cc23)COC1 | 6.00 to 6.60
5. O=C(CCc1c(-c2ccc(F)cc2)[nH]c2c(F)cc(F)cc12)Nc1cnoc1 | < 6.00
6. CNC(=O)CCCc1c(-c2ccc(F)cc2)[nH]c2c(F)cc(F)cc12 | 6.00 to 6.60
7. O=C(NCCc1c(-c2ccc(F)cc2)[nH]c2c(F)cc(F)cc12)c1ccc[nH]1 | < 6.00
8. O=C(CCc1c(-c2ccc(F)cc2)[nH]c2c(F)cc(F)cc12)NC1(C(F)(F)F)CCC1 | < 6.00
9. O=C(NCCc1c(-c2ccc(F)cc2)[nH]c2c(F)cc(F)cc12)NCC1CCOCC1 | < 6.00
10. CC(O)C(C)NC(=O)CCc1c(-c2ccc(F)cc2)[nH]c2ccc(F)cc12 (mixture of isomers) | < 6.00
11. CC(=O)NCCCc1c(-c2ccc(F)cc2)[nH]c2c(Cl)cccc12 | 6.00 to 6.60
12. Cn1ccnc1CCC(=O)NCCc1c(-c2ccc(F)cc2)[nH]c2c(F)cc(F)cc12 | < 6.00
13. O=C(NCCc1c(-c2ccc(F)cc2)[nH]c2c(F)cc(F)cc12)N[C@@H]1CC[C@H](O)C1 | < 6.00
14. NC(=O)CC(=O)NCCc1c(-c2ccc(F)cc2)[nH]c2c(F)cc(F)cc12 | < 6.00
15. O=C(CCc1c(-c2ccc(F)cc2)[nH]c2ccc(F)cc12)NC(CO)C1CC1 (centres unmarked) | 6.00 to 6.60
16. O=C(CCc1c(-c2ccc(F)cc2)[nH]c2c(F)cc(F)cc12)Nc1c[nH][nH]c1=O | 6.00 to 6.60
17. O=C(CCc1c(-c2ccc(F)cc2)[nH]c2c(F)cc(F)cc12)NC[C@@H](O)C(F)(F)F | < 6.00
18. CC(C)(CO)NC(=O)CCc1c(-c2ccc(F)cc2)[nH]c2c(F)cc(F)cc12 | 6.00 to 6.60
19. Cn1ccc(NC(=O)CCc2c(-c3ccc(F)cc3)[nH]c3c(F)cc(F)cc23)n1 | < 6.00
20. O=C(CCCc1c(-c2ccc(F)cc2)[nH]c2c(F)cc(F)cc12)N[C@@H]1CCNC1=O | < 6.00
21. N#CC(NC(=O)CCc1c(-c2ccc(F)cc2)[nH]c2c(F)cc(F)cc12)C(N)=O (centres unmarked) | 6.00 to 6.60
22. CN(C)C(=O)CCC(=O)NCCc1c(-c2ccc(F)cc2)[nH]c2c(F)cc(F)cc12 | < 6.00
23. CC(=O)NCCSc1c(-c2ccc(F)cc2)[nH]c2ccccc12 | 6.00 to 6.60

* * *

# Assay system: G1 APOL1 (Homo sapiens, UniProt O14791, I384M/S342G)
# Construct: expressed in transfected cells
# Sequence (O14791 28-398 S342G/I384M): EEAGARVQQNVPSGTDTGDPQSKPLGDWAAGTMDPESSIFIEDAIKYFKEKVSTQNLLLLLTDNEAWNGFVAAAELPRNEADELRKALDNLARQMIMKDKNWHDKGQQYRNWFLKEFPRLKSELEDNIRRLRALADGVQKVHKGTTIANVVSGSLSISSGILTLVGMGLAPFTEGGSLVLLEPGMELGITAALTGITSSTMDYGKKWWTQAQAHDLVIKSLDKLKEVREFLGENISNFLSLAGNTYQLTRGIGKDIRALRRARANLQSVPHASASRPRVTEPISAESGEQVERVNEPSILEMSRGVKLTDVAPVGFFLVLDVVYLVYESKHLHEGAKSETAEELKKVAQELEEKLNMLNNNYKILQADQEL
# Experimental details: Acute APOL1 Thallium Assay with Inducible Stable Clones of HEK 293 Cells
# Type: cell-based
# Measurement parameters: HEK 293 inducible stable clones, G1 APOL1; read-out: Thallium Assay (IC50)
pIC50: −log10 of the molar value.
Measure: pIC50

1) O=C(N[C@@H](CO)C(F)F)OCCc1c(-c2ccc(F)cc2)[nH]c2c(F)cc(F)cc12 [Compound 441] | > 6.60
2) O=C(CCCc1c(-c2ccc(F)cc2)[nH]c2c(F)cc(F)cc12)NCC1CNC(=O)C1 (centres unmarked) [Compound 252] | < 6.00
3) CNC(=O)C(C)NC(=O)CCc1c(-c2ccc(F)cc2)[nH]c2ccc(F)cc12 (racemic) [Compound 11] | 6.00 to 6.60
4) O=C(NCCc1c(-c2ccc(F)cc2)[nH]c2c(F)cc(F)cc12)c1cc(C(F)(F)F)n[nH]1 [Compound 315] | < 6.00
5) O=C(CCc1c(-c2ccc(F)cc2)[nH]c2ccc(F)cc12)NC1CC(F)(F)C1 [Compound 47] | 6.00 to 6.60
6) NC(=O)C1(NC(=O)CCc2c(-c3ccc(F)cc3)[nH]c3ccc(F)cc23)CC1 [Compound 20] | < 6.00
7) O=C(NCCc1c(-c2ccc(F)cc2)[nH]c2c(F)cc(F)cc12)C1(F)CCC1 [Compound 406] | 6.00 to 6.60
8) CC(C)(CF)C(=O)NCCc1c(-c2ccc(F)cc2)[nH]c2c(F)cc(F)cc12 [Compound 405] | 6.00 to 6.60
9) Cc1cnc(NC(=O)CCc2c(-c3ccc(F)cc3)[nH]c3c(F)cc(F)cc23)o1 [Compound 172] | < 6.00
10) O=C(NCCc1c(-c2ccc(F)cc2)[nH]c2c(F)cc(F)cc12)C(F)F [Compound 414] | < 6.00
11) O=C(NCCc1c(-c2ccc(F)cc2)[nH]c2c(F)cc(F)cc12)[C@H]1CC[C@H](O)CC1 [Compound 325] | < 6.00
12) Cn1nccc1C(=O)NCCc1c(-c2ccc(F)cc2)[nH]c2c(F)cc(F)cc12 [Compound 392] | 6.00 to 6.60
13) CC(C)(C)OC(=O)NC1(C(=O)NCCc2c(-c3ccc(F)cc3)[nH]c3c(F)cc(F)cc23)CCC1 [Compound 311] | < 6.00
14) O=C(NCCc1c(-c2ccc(F)cc2)[nH]c2c(F)cc(F)cc12)C(O)CO (centres unmarked) [Compound 310] | 6.00 to 6.60
15) CC(O)CCNC(=O)OCCc1c(-c2ccc(F)cc2)[nH]c2c(F)cc(F)cc12 (centres unmarked) [Compound 483] | < 6.00
16) NC(=O)CNC(=O)CCc1c(-c2ccc(F)cc2)[nH]c2c(F)cc(Cl)cc12 [Compound 201] | < 6.00
17) Cn1cnc(CNC(=O)OCCc2c(-c3ccc(F)cc3)[nH]c3c(F)cc(F)cc23)c1 [Compound 478] | < 6.00
18) CC(C)C(CO)NC(=O)CCc1c(-c2ccc(F)cc2)[nH]c2ccc(F)cc12 (centres unmarked) [Compound 75] | < 6.00
19) COC[C@H](C)NC(=O)OCCc1c(-c2ccc(F)cc2)[nH]c2c(F)cc(F)cc12 [Compound 444] | > 6.60
20) O=C(CCc1c(-c2ccc(F)cc2)[nH]c2ccc(F)cc12)NCC(F)(F)F [Compound 39] | 6.00 to 6.60
21) CC(CC(N)=O)N(C)C(=O)NCCc1c(-c2ccc(F)cc2)[nH]c2c(F)cc(F)cc12 (racemic) [Compound 290] | < 6.00
22) O=C(CCc1c(-c2ccc(F)cc2)[nH]c2ccccc12)NC1CC1 [Compound 238] | < 6.00
23) O=C(NCc1cn(CC(F)(F)F)cn1)OCCc1c(-c2ccc(F)cc2)[nH]c2c(F)cc(F)cc12 [Compound 493] | < 6.00
24) N#CCC(=O)NCCc1c(-c2ccc(F)cc2)[nH]c2c(F)cc(F)cc12 [Compound 416] | < 6.00
25) O=C(CCc1c(-c2ccc(F)cc2)[nH]c2c(F)cc(Cl)cc12)NC(CO)CF (centres unmarked) [Compound 196] | 6.00 to 6.60
26) O=C(CCc1c(-c2ccc(F)cc2)[nH]c2ccc(F)cc12)N1CC(O)C1 [Compound 58] | < 6.00
27) OC1(CC#Cc2c(-c3ccc(F)cc3)[nH]c3c(F)cc(F)cc23)CCC1 [Compound 525] | < 6.00
28) Nc1ccnn1C(=O)CCc1c(-c2ccc(F)cc2)[nH]c2ccc(F)cc12 [Compound 6] | 6.00 to 6.60
29) CC(C)(C)OC(=O)N[C@H]1C[C@H](NC(=O)CCc2c(-c3ccc(F)cc3)[nH]c3ccc(F)cc23)C1 [Compound 57] | < 6.00
